test system: MS2 coat protein; assay: apparent Kd, MS2 coat protein; higher = weaker binding; RNA-MaP array; conditions: designed as: OFF switch for flavin mononucleotide; no ligand
apparent Kd: recorded values
quantity_kind: apparent Kd (nM)

sequence_data=CGUAACCAAGGAUAUACAUGAGGAUCACCCAUGUAUCGGGUCGGUCUGGGUCCAAUAAGUAGAAGGUGGCUGAU measured_on="MS2 coat protein" recorded_number=29.3
sequence_data=AGCCAAUAAGGAUAUACAUUUAGAGAUCAUCGUACAAAGUAACAUGAGGAUCACCCAUGUAGAAGGUAUGCAGC measured_on="MS2 coat protein" recorded_number=10.2
sequence_data=UAGGAACAUGAGGAUCACCCAUGUUAGGAUAUCGAGGUAUGGAUUAUCAUGCUGUAAGCGAGAAGGAACGUGUG measured_on="MS2 coat protein" recorded_number=30.8
